// reported Exch II (%) for each item listed
# target.entity: T1, HLA-B*08:01 (human, biotinylated heavy chain)
# T1 construct: Conditional HLA class I complex as for m1
# test.protocol: UV peptide exchange; HLA class I ELISA

- binder: "KQLIAMDSA [Peptide 9, 9-mer KQLIAMDSA derived from P22 (SEQ ID NO: 1003)]"
  Exch II (%): 8.3
- binder: "SLIAMDSAI [Peptide 3, 9-mer SLIAMDSAI derived from FUS1 (SEQ ID NO: 1001)]"
  Exch II (%): 7.1
- binder: "YHREKQLIA [Peptide 6, 9-mer YHREKQLIA derived from P22 (SEQ ID NO: 1003)]"
  Exch II (%): 8.4
- binder: "HREKQLIAM [Peptide 7, 9-mer HREKQLIAM derived from P22 (SEQ ID NO: 1003)]"
  Exch II (%): 9.5
